tested on: MS2 coat protein; test: apparent KD of MS2 coat protein; designed switch direction (-1 OFF switch, 1 ON switch): -1; higher = weaker reporter binding; details: Eterna round: R95; input ligand: microRNA oligo, concentration not stated

{"columns": ["QUERY_SEQUENCE", "SYSTEM_UNDER_TEST", "UNITS_SYMBOL", "apparent KD of MS2 coat protein"],
 "data": [
  ["GACUGCCGAGGAUAUACAUGAGGAUCACCCAUGUGCUUCAGUAUCGAAAGAUGCAUGGGUAGAAGGCGGUAGUC [LRO-Excl3-10] (puzzle: Exclusion 3)", "MS2 coat protein", "nM", 172],
  ["CUUUUGUGAGGAUAUCAGUAGUAGAACAAUAGUACUACUACUGAGAAGGCACAUGAGGAUCACCCAUGUACCUC [Fiskers Ex 4 Super stable 44 mod 3] (puzzle: Exclusion 4)", "MS2 coat protein", "nM", 18.8],
  ["GGUCAAGAACAGAUCCGCGCUGCCAUUGACCGCUCAUUUACAUGAGGAUCACCCAUGUUUUUUGCUCGUCUUACUAC [Edesso] (puzzle: Sensor v3, turn-off variant 2)", "MS2 coat protein", "nM", 61.4]
]}
